# Test system: 633275-114-R-J1-PDC complex spheroids, viability
# runDescription: Anticancer human tumor 633275-114-R-J1-PDC patient-derived endometrial adenocarcinoma cell line growth inhibition [GQUAD]
# measurementParameters: second compound 10 µM; first compound 0.1 µM; stronger effect = lower value
# Excerpt: DNA G-quadruplex Stabilizer Agents in Combinations in Complex Spheroids A high-throughput screen of multi-cell type tumor spheroids was designed to identify active combinations of DNA G-quadruplex stabilizer agents and targeted small molecules. […] Compounds. […] If the clinical Cmax for an agent had not been determined, the highest concentration tested was 10 microM. […]

[
  {
    "molecule": "C#Cc1c(F)ccc2cc(O)cc(-c3ncc4c(N5CC6CCC(C5)N6)nc(OCC56CCCN5CC(F)C6)nc4c3F)c12 (stereo unspecified) + CN(C)c1ccc(Nc2c3ccc(NC(=O)CCN4CCCC4)cc3nc3cc(NC(=O)CCN4CCCC4)ccc23)cc1",
    "viability, T/C, %": 29.2
  },
  {
    "molecule": "CC(C)n1c(=O)n(C)c2cnc3cc(F)c(-c4ccc(OCCCN5CCCCC5)nc4)cc3c21 + Cc1[nH]c2ccc(F)cc2c1-c1nc2c3cccnc3c3ncccc3c2[nH]1",
    "viability, T/C, %": 74.4
  },
  {
    "molecule": "O=C(c1cc(Cc2n[nH]c(=O)c3ccccc23)ccc1F)N1CCN(C(=O)C2CC2)CC1 + Cc1[nH]c2ccc(F)cc2c1-c1nc2c3cccnc3c3ncccc3c2[nH]1",
    "viability, T/C, %": 66.5
  },
  {
    "molecule": "O=C(NO)c1cnc(N2CCN(S(=O)(=O)c3ccc4ccccc4c3)CC2)nc1 + Cc1cnc(CNC(=O)c2c(=O)c3ccc(N4CCCN(C)CC4)nc3n3c2sc2ccccc23)cn1",
    "viability, T/C, %": 27.6
  },
  {
    "molecule": "CC(C)(O)C1CCC(Nc2ccc3ncc(-c4cccc(C(F)(F)F)c4)n3n2)CC1 (stereo unspecified) + CN(C)c1ccc(Nc2c3ccc(NC(=O)CCN4CCCC4)cc3nc3cc(NC(=O)CCN4CCCC4)ccc23)cc1",
    "viability, T/C, %": 32.3
  },
  {
    "molecule": "C=CCn1c(=O)c2cnc(Nc3ccc(N4CCN(C)CC4)cc3)nc2n1-c1cccc(C(C)(C)O)n1 + CN(C)c1ccc(Nc2c3ccc(NC(=O)CCN4CCCC4)cc3nc3cc(NC(=O)CCN4CCCC4)ccc23)cc1",
    "viability, T/C, %": 23.9
  },
  {
    "molecule": "CC1COCCN1c1cc(C2(S(C)(=N)=O)CC2)nc(-c2ccnc3[nH]ccc23)n1 (stereo unspecified) + CN(C)c1ccc(Nc2c3ccc(NC(=O)CCN4CCCC4)cc3nc3cc(NC(=O)CCN4CCCC4)ccc23)cc1",
    "viability, T/C, %": 38.2
  },
  {
    "molecule": "COc1cccc2c1C(=O)c1c(O)c3c(c(O)c1C2=O)CC(O)(C(=O)CO)CC3OC1CC(N)C(O)C(C)O1 (stereo unspecified) + Cc1cnc(CNC(=O)c2c(=O)c3ccc(N4CCCN(C)CC4)nc3n3c2sc2ccccc23)cn1",
    "viability, T/C, %": 28.8
  },
  {
    "molecule": "CC1COCCN1c1cc(C2(O)CC3CCC(C2)O3)c2cnn(-c3ccn[nH]3)c2n1 (stereo unspecified) + Cc1[nH]c2ccc(F)cc2c1-c1nc2c3cccnc3c3ncccc3c2[nH]1",
    "viability, T/C, %": 38
  },
  {
    "molecule": "O=C(NO)c1cnc(N2CCN(S(=O)(=O)c3ccc4ccccc4c3)CC2)nc1 + Cc1[nH]c2ccc(F)cc2c1-c1nc2c3cccnc3c3ncccc3c2[nH]1",
    "viability, T/C, %": 58.3
  },
  {
    "molecule": "Nc1ccn(C2OC(CO)C(O)C2(F)F)c(=O)n1 (stereo unspecified) + CN(C)c1ccc(Nc2c3ccc(NC(=O)CCN4CCCC4)cc3nc3cc(NC(=O)CCN4CCCC4)ccc23)cc1",
    "viability, T/C, %": 11.6
  }
]

---

# System: 633275-114-R-J1-PDC complex spheroids, viability
# runDescription: Anticancer human tumor 633275-114-R-J1-PDC cell line growth inhibition [GQUAD];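 note: spheroids exposed to the agents for seven days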;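 for viability, T/C: percent of DMSO vehicle control viability which is 100%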
# measurementParameters: second compound 10 µM; first compound 0.1 µM; stronger effect = lower value
Lab note: compare viability, T/C with 30%, writing Yes if less and No if equal or more.

[
  {
    "compound": "CC(C)(O)C1CCC(Nc2ccc3ncc(-c4cccc(C(F)(F)F)c4)n3n2)CC1 (centres undefined) + Cc1[nH]c2ccc(F)cc2c1-c1nc2c3cccnc3c3ncccc3c2[nH]1",
    "testedOn": "633275-114-R-J1-PDC complex spheroids, viability",
    "labelValue": "No"
  },
  {
    "compound": "O=C(c1cc(Cc2n[nH]c(=O)c3ccccc23)ccc1F)N1CCN(C(=O)C2CC2)CC1 + Cc1cnc(CNC(=O)c2c(=O)c3ccc(N4CCCN(C)CC4)nc3n3c2sc2ccccc23)cn1",
    "testedOn": "633275-114-R-J1-PDC complex spheroids, viability",
    "labelValue": "No"
  },
  {
    "compound": "O=c1[nH]cc(F)c(=O)[nH]1 + Cc1cnc(CNC(=O)c2c(=O)c3ccc(N4CCCN(C)CC4)nc3n3c2sc2ccccc23)cn1",
    "testedOn": "633275-114-R-J1-PDC complex spheroids, viability",
    "labelValue": "No"
  },
  {
    "compound": "COc1cc(C2c3cc4c(cc3C(OC3OC5COC(C)OC5C(O)C3O)C3COC(=O)C23)OCO4)cc(OC)c1O (centres undefined) + Cc1cnc(CNC(=O)c2c(=O)c3ccc(N4CCCN(C)CC4)nc3n3c2sc2ccccc23)cn1",
    "testedOn": "633275-114-R-J1-PDC complex spheroids, viability",
    "labelValue": "No"
  },
  {
    "compound": "CCCS(=O)(=O)Nc1ccc(F)c(C(=O)c2c[nH]c3ncc(-c4ccc(Cl)cc4)cc23)c1F + Cc1[nH]c2ccc(F)cc2c1-c1nc2c3cccnc3c3ncccc3c2[nH]1",
    "testedOn": "633275-114-R-J1-PDC complex spheroids, viability",
    "labelValue": "No"
  },
  {
    "compound": "CC(=O)O[C@H]1C(=O)[C@@]2(C)[C@H]([C@H](OC(=O)c3ccccc3)[C@]3(O)C[C@H](OC(=O)[C@H](O)[C@@H](NC(=O)c4ccccc4)c4ccccc4)C(C)=C1C3(C)C)[C@]1(OC(C)=O)CO[C@@H]1C[C@@H]2O + Cc1[nH]c2ccc(F)cc2c1-c1nc2c3cccnc3c3ncccc3c2[nH]1",
    "testedOn": "633275-114-R-J1-PDC complex spheroids, viability",
    "labelValue": "Yes"
  },
  {
    "compound": "COc1cccc2c1C(=O)c1c(O)c3c(c(O)c1C2=O)CC(O)(C(=O)CO)CC3OC1CC(N)C(O)C(C)O1 (centres undefined) + Cc1[nH]c2ccc(F)cc2c1-c1nc2c3cccnc3c3ncccc3c2[nH]1",
    "testedOn": "633275-114-R-J1-PDC complex spheroids, viability",
    "labelValue": "No"
  },
  {
    "compound": "COc1ncnc(C2CC2)c1-c1ncc2cnn(Cc3ccc(-c4nc(C(F)(F)F)cn4C(C)C)cc3)c2n1 + Cc1cnc(CNC(=O)c2c(=O)c3ccc(N4CCCN(C)CC4)nc3n3c2sc2ccccc23)cn1",
    "testedOn": "633275-114-R-J1-PDC complex spheroids, viability",
    "labelValue": "Yes"
  },
  {
    "compound": "O=C(NO)c1cnc(N2CCN(S(=O)(=O)c3ccc4ccccc4c3)CC2)nc1 + CN(C)c1ccc(Nc2c3ccc(NC(=O)CCN4CCCC4)cc3nc3cc(NC(=O)CCN4CCCC4)ccc23)cc1",
    "testedOn": "633275-114-R-J1-PDC complex spheroids, viability",
    "labelValue": "Yes"
  }
]

---

# Test system: 633275-114-R-J1-PDC complex spheroids, viability
# runDescription: Anticancer human tumor 633275-114-R-J1-PDC cell line growth inhibition [GQUAD];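 note: spheroids exposed to the agents for seven days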
# measurementParameters: curve of first compound; second compound 0.316 µM
pIC50: −log10 of the molar value.
Some molecules, each annotated with its measured pIC50.

[
  {
    "molecule": "CC1COCCN1c1cc(C2(O)CC3CCC(C2)O3)c2cnn(-c3ccn[nH]3)c2n1 (stereo not drawn) + Cc1[nH]c2ccc(F)cc2c1-c1nc2c3cccnc3c3ncccc3c2[nH]1",
    "relationalOperator": "=",
    "pIC50": 7.04
  },
  {
    "molecule": "COc1ccc([C@@H](O)c2cc(-c3ncnc4cc(N5CCOCC5)ccc34)c(F)cc2Cl)nn1 + Cc1[nH]c2ccc(F)cc2c1-c1nc2c3cccnc3c3ncccc3c2[nH]1",
    "relationalOperator": "=",
    "pIC50": 5.54
  },
  {
    "molecule": "O=C(c1cc(Cc2n[nH]c(=O)c3ccccc23)ccc1F)N1CCN(C(=O)C2CC2)CC1 + CN(C)c1ccc(Nc2c3ccc(NC(=O)CCN4CCCC4)cc3nc3cc(NC(=O)CCN4CCCC4)ccc23)cc1",
    "relationalOperator": "<",
    "pIC50": 5.00
  }
]
